Molecular target: cytochrome P450 2E1 (CYP2E1) (Homo sapiens)
Sequence (P05181 whole entry): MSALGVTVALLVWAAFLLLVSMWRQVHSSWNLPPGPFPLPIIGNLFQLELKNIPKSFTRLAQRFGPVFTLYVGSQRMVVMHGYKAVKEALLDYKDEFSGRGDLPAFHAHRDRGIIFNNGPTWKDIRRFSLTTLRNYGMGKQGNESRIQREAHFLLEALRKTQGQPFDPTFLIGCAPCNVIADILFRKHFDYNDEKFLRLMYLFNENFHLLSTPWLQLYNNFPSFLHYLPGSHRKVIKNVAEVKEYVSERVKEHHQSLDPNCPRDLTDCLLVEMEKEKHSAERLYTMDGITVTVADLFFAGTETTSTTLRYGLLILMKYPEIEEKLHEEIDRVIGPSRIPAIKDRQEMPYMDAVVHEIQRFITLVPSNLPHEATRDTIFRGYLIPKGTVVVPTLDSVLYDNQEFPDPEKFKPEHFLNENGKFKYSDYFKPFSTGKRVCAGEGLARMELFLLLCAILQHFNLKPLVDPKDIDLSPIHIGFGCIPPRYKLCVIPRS
Test: CYP2E1 High Throughput Inhibitor Screening Kit, cDNA synthesized microsomal CYP2E1 (MFC to HFC)
Details: 66 μM
Description: CYP2E1 High Throughput Inhibitor Screening Kit (BD Bioscience, USA) was used to screen the cytochrome P450 (CYP2E1) inhibitors from 22 Chinese medicine guiding drugs and 10 excipients and microsomal cytochrome P450 (CYP2E1) was synthesized from cDNA (BD Bioscience, USA). […] c. […] The fluorescence was transverse into CYP 2E1 metabolite standard (HFC) concentration (pmol) and the percentage (%) of CYP 2E1 inhibition was calculated using control as baseline by following equation: […]
As shown below, each of these molecules has a reported Inhibition of CYP 2E1 value.
Give a bare numeral; the unit % is implied.

# count of solved cases: 3
Molecule: Oc1cc(O)c2c(c1)O[C@H](c1ccc(O)c(O)c1)[C@@H](O)C2 [(+)-Catechin]
Value kind: Inhibition of CYP 2E1
Measure unit: %
Observed value: 16.45
//
Molecule: COc1c(O)cc2oc(Oc3ccc(O)cc3)cc(=O)c2c1O [Capillarisin]
Value kind: Inhibition of CYP 2E1
Measure unit: %
Observed value: 76.12
//
Molecule: Oc1cc(O)c2c(c1)O[C@H](c1ccc(O)c(O)c1)[C@H](O)C2 [(−)-Epicatechin]
Value kind: Inhibition of CYP 2E1
Measure unit: %
Observed value: 2.57

Below: the item to evaluate.
input: # query: Inhibition of CYP 2E1 of entry O=c1cc(-c2ccccc2)oc2ccc3ccccc3c12 [β-naphthoflavone]
output: 15.40

----------
Test system: amidase
Test: Mouse liver microsomal amidase, isoniazid to isonicotinic acid
Assay type: biochemical
Settings: 1 uM
Value kind: Amidase inhibition (%)
Give a bare numeral; the unit % is implied.

# count of solved cases: 8
Compound: COc1ccc([C@@H]2CC(=O)c3c(O)cc(O)cc3O2)cc1O
Measure unit: %
Amidase inhibition: −40.5
--
Compound: O=c1cc(-c2ccc(O)cc2)oc2cc(O)c([C@@H]3O[C@H](CO)[C@@H](O)[C@H](O)[C@H]3O)c(O)c12
Measure unit: %
Amidase inhibition: 13.9
--
Compound: COc1cc(-c2oc3cc(O)cc(O)c3c(=O)c2O)ccc1O
Measure unit: %
Amidase inhibition: 13.8
--
Compound: CCCCC[C@H](O)CC(=O)CCc1ccc(O)c(OC)c1
Measure unit: %
Amidase inhibition: −8.2
--
Compound: COc1ccc(-c2cc(=O)c3c(O)c(OC)c(OC)cc3o2)cc1O
Measure unit: %
Amidase inhibition: 0.9
--
Compound: CCCCCCCCCCCCO
Measure unit: %
Amidase inhibition: 2.2
--
Compound: CC1(C)[C@@H](O[C@H]2O[C@H](C(=O)O)[C@@H](O)[C@H](O)[C@H]2O[C@@H]2O[C@H](C(=O)O)[C@@H](O)[C@H](O)[C@H]2O)CC[C@]2(C)[C@H]3C(=O)C=C4[C@@H]5C[C@@](C)(C(=O)O)CC[C@]5(C)CC[C@@]4(C)[C@]3(C)CC[C@@H]12
Measure unit: %
Amidase inhibition: −1.3
--
Compound: O=c1cc(-c2ccccc2)oc2cc(O)c(O)c(O)c12
Measure unit: %
Amidase inhibition: 2.8

input: # query: Amidase inhibition of entry Oc1cc(O)c2c(c1)O[C@H](c1ccc(O)c(O)c1)[C@@H](O)C2 [(+)-Catechin]
output: −2.1

input: # query: Amidase inhibition of entry O=c1cc(-c2ccc(O)c(O)c2)oc2cc(O)cc(O)c12
output: 6.1

input: # query: Amidase inhibition of entry COc1cc(/C=C/C(=O)CC(=O)/C=C/c2ccc(O)c(OC)c2)ccc1O
output: 16.9

Taken from patent US8969312B2.
